EXPERIMENT SUMMARY: gradient 5% acetonitrile 3 min, to 50% in 2 min, to 85% in 15 min, held 3 min, 100 µL/min
PROTOCOL CONDITIONS: column: Zorbax Extend-C18 2.1 x 50 mm; eluents: water / acetonitrile, 0.1% formic acid
In this section, each of the compounds is paired with its reported RP-LC retention time.

[
  {
    "COMPOUND": "COc1cccc(NC(=O)Cn2ncc3c(c2=O)N(CC2CC2)C(=O)CS3)c1",
    "RP-LC retention time": "775 s"
  },
  {
    "COMPOUND": "CCCn1c(=O)c2cc(C(=O)Nc3ccccc3)nn2c2ccccc21",
    "RP-LC retention time": "1030 s"
  },
  {
    "COMPOUND": "Cc1ccc(CNC(=O)c2cn3ccc(C)cc3n2)cc1",
    "RP-LC retention time": "670 s"
  },
  {
    "COMPOUND": "COc1ccccc1-c1nc2cnccn2c1NCCC(=O)NC1CCCCC1",
    "RP-LC retention time": "673 s"
  },
  {
    "COMPOUND": "Cc1sc2ccn(C)c(=O)c2c1C(=O)NCc1ccc(N2CCCCC2)cc1",
    "RP-LC retention time": "580 s"
  },
  {
    "COMPOUND": "Cc1ccc2c(c1)cc(S(=O)(=O)c1ccccc1)c(=O)n2CC(=O)N1CCCCC1",
    "RP-LC retention time": "919 s"
  },
  {
    "COMPOUND": "CCNC(=O)c1ccc2c(c1)CCCN2S(=O)(=O)c1ccc(Cl)cc1",
    "RP-LC retention time": "887 s"
  },
  {
    "COMPOUND": "COc1ccccc1NC(=O)c1cn2c(n1)CCCC2",
    "RP-LC retention time": "622 s"
  },
  {
    "COMPOUND": "CCOCCCNC(=O)N1CCC(c2noc(-c3ccncc3)n2)C1 (stereo not given)",
    "RP-LC retention time": "643 s"
  },
  {
    "COMPOUND": "COC(=O)c1ccc(NC(=O)c2ccc(-n3ccnc3C)nn2)cc1",
    "RP-LC retention time": "561 s"
  }
]

---

EXPERIMENT SUMMARY: gradient 5% acetonitrile 3 min, to 50% in 2 min, to 85% in 15 min, held 3 min, 100 µL/min
PROTOCOL CONDITIONS: column: Zorbax Extend-C18 2.1 x 50 mm; eluents: water / acetonitrile, 0.1% formic acid
In this section, each of the molecules is paired with its reported RP-LC retention time.

[
  {
    "MOLECULE": "Nc1nc(N2CCN(c3ccccc3F)CC2)ncc1C(=O)Nc1ccccc1",
    "RP-LC retention time / s": 821
  },
  {
    "MOLECULE": "CC(C)Oc1ccc(-c2noc(Cc3nnc(-c4ccc(F)cc4)o3)n2)cc1",
    "RP-LC retention time / s": 1110
  },
  {
    "MOLECULE": "CCOc1ccc(NC(=O)Cn2c(=O)n(-c3cccc(C)c3)c(=O)c3c2cc(C)n3C)cc1",
    "RP-LC retention time / s": 864
  },
  {
    "MOLECULE": "Cc1nnc(-c2ccc3ccn(CC(=O)NC4CCCCCC4)c3c2)o1",
    "RP-LC retention time / s": 813
  },
  {
    "MOLECULE": "CC1(C)COc2ccc(NC(=O)NCc3cccc4ccccc34)cc2NC1=O",
    "RP-LC retention time / s": 602
  },
  {
    "MOLECULE": "Cc1cc(C)c(S(=O)(=O)N2CCN(Cc3cccc(F)c3)C3(CCOCC3)C2)c(C)c1",
    "RP-LC retention time / s": 973
  },
  {
    "MOLECULE": "CC1CCN(C(=O)C2CCN(c3nc4cccnc4s3)CC2)CC1",
    "RP-LC retention time / s": 784
  },
  {
    "MOLECULE": "COCCNC(=O)N1c2ccccc2CC1c1nc(C(C)C)no1 (centres undefined)",
    "RP-LC retention time / s": 836
  },
  {
    "MOLECULE": "Cn1ncc2c3ccccc3n(CC(=O)N3CCC(C(N)=O)CC3)c2c1=O",
    "RP-LC retention time / s": 611
  }
]

---

EXPERIMENT SUMMARY: gradient 5% acetonitrile 3 min, to 50% in 2 min, to 85% in 15 min, held 3 min, 100 µL/min
PROTOCOL CONDITIONS: column: Zorbax Extend-C18 2.1 x 50 mm; eluents: water / acetonitrile, 0.1% formic acid
// classify: if (RP-LC retention time < 700 s) T else F

[
  {
    "COMPOUND": "CNC(=O)c1noc([C@@H]2CC(F)(F)CN2C(=O)CCOC)n1",
    "ASSIGNED CATEGORY": "T"
  },
  {
    "COMPOUND": "O=S(=O)(Cc1ccccc1Cl)N1CCc2nc(-c3ccc(F)cc3)ncc2C1",
    "ASSIGNED CATEGORY": "F"
  },
  {
    "COMPOUND": "N#Cc1ccc(S(=O)(=O)N2CCC(c3cc(N)on3)CC2)cc1",
    "ASSIGNED CATEGORY": "F"
  },
  {
    "COMPOUND": "Cc1nnc2c(NC(=O)c3ccncc3)cccn12",
    "ASSIGNED CATEGORY": "T"
  },
  {
    "COMPOUND": "O=C(c1ccc2c(c1)OCO2)N1CCC2(CC1)NC(=O)N(Cc1ccccc1)C2=O",
    "ASSIGNED CATEGORY": "F"
  },
  {
    "COMPOUND": "Cc1cc(SCC(=O)c2ccc3c(c2)OCO3)nc(C(C)C)n1",
    "ASSIGNED CATEGORY": "F"
  },
  {
    "COMPOUND": "Cc1cc(C)cc(C(=O)N2CCC(C(=O)NCc3csc(-c4cccs4)n3)CC2)c1",
    "ASSIGNED CATEGORY": "F"
  },
  {
    "COMPOUND": "CN(C)CCNC(=O)C1CCCN(c2ccc(Sc3ccc(Br)cc3)nn2)C1 (stereo not given)",
    "ASSIGNED CATEGORY": "T"
  },
  {
    "COMPOUND": "CCCCN(C)C(=O)CN1C(=O)C2CCCCN2c2ccc(S(=O)(=O)N(CC)CC)cc21 (stereo not given)",
    "ASSIGNED CATEGORY": "F"
  }
]

---

EXPERIMENT SUMMARY: gradient 5% acetonitrile 3 min, to 50% in 2 min, to 85% in 15 min, held 3 min, 100 µL/min
PROTOCOL CONDITIONS: column: Zorbax Extend-C18 2.1 x 50 mm; eluents: water / acetonitrile, 0.1% formic acid

[
  {
    "COMPOUND": "Cc1ccc(C)c(NS(=O)(=O)c2c(C)sc(C)c2-c2n[nH]c(C)c2C)c1",
    "RP-LC retention time (s)": 1140
  },
  {
    "COMPOUND": "O=C(CN1C(=O)CC(c2ccccc2)=Nc2cccnc21)Nc1ccc(Cl)cc1",
    "RP-LC retention time (s)": 1010
  },
  {
    "COMPOUND": "CCOCCCNC(=O)Cn1c(-c2cccs2)cc2cc(F)ccc21",
    "RP-LC retention time (s)": 946
  },
  {
    "COMPOUND": "NC(=O)c1cc(-c2ccccc2)nc2ccccc12",
    "RP-LC retention time (s)": 743
  },
  {
    "COMPOUND": "O=C(CN1C(=O)NC2(CCCCC2)C1=O)Nc1ccc2c(c1)OCCO2",
    "RP-LC retention time (s)": 708
  },
  {
    "COMPOUND": "CCOC(=O)c1noc2nc(C)nc(N3CCN(c4ccccc4)CC3)c12",
    "RP-LC retention time (s)": 643
  },
  {
    "COMPOUND": "O=C(NCc1cccc(Cl)c1)C1CCN(c2cnc(N3CCCC3)nc2)CC1",
    "RP-LC retention time (s)": 690
  },
  {
    "COMPOUND": "O=C(NCCc1csc(C2CCCN(C(=O)C3CC3)C2)n1)C1CCC1 (stereo not given)",
    "RP-LC retention time (s)": 682
  },
  {
    "COMPOUND": "Cc1nn(-c2ccccc2)c(C)c1S(=O)(=O)N1CCC(C(=O)N2CCc3ccccc3C2)CC1",
    "RP-LC retention time (s)": 986
  },
  {
    "COMPOUND": "CCOC(=O)Nc1c2ccccc2nc2ccccc12",
    "RP-LC retention time (s)": 660
  }
]

---

In this section, each of the compounds is paired with its reported RP-LC retention time.
EXPERIMENT SUMMARY: gradient 5% acetonitrile 3 min, to 50% in 2 min, to 85% in 15 min, held 3 min, 100 µL/min
PROTOCOL CONDITIONS: column: Zorbax Extend-C18 2.1 x 50 mm; eluents: water / acetonitrile, 0.1% formic acid

[
  {
    "COMPOUND": "N#Cc1cccc(C(=O)Nc2ccc3cn[nH]c3c2)c1",
    "RP-LC retention time (s)": 659
  },
  {
    "COMPOUND": "COc1ccc(Nc2c(-c3ccc(SC)cc3)nc3cnc(Br)cn23)cc1OC",
    "RP-LC retention time (s)": 934
  },
  {
    "COMPOUND": "N#Cc1ccc2[nH]cc(CCCCN3CCN(c4ccc5oc(C(N)=O)cc5c4)CC3)c2c1",
    "RP-LC retention time (s)": 702
  },
  {
    "COMPOUND": "Cc1cc(C)c(C(=O)N2CCC(CC(=O)NCCC(C)C)CC2)[nH]1",
    "RP-LC retention time (s)": 764
  },
  {
    "COMPOUND": "O=C(CCc1nc2ccccc2s1)N1C[C@H]2CNC(=O)[C@]23CCCC[C@@H]13",
    "RP-LC retention time (s)": 705
  },
  {
    "COMPOUND": "Cc1ccc(-c2coc(-c3ccc(NC(=O)NCCc4ccccc4)cc3)n2)c(C)c1",
    "RP-LC retention time (s)": 1260
  },
  {
    "COMPOUND": "Cc1cccn2c(=O)cc(OCC(=O)Nc3ccc(SC(F)F)cc3)nc12",
    "RP-LC retention time (s)": 771
  },
  {
    "COMPOUND": "Cc1ccc(CNC(=O)c2ccc3c(c2)Sc2ncccc2C(=O)N3C)cc1",
    "RP-LC retention time (s)": 796
  },
  {
    "COMPOUND": "CCN1C(=O)c2c(C(=O)Nc3ccc(C)cc3)ncn2CC1(C)C(=O)NC1CCCC1 (centres undefined)",
    "RP-LC retention time (s)": 822
  }
]

Reference for the values: the METLIN SMRT retention time set (Domingo-Almenara et al. 2019)
